Would you kindly list viability for each of these compounds?
# method_description: reversal of MRP1-mediated doxorubicin resistance, pilot screen, H69AR cells, doxorubicin co-treatment (AID 601)
# conditions_used: H69AR cells + 2 uM doxorubicin, CellTiter-Glo, 72 h; measured here: viability with 2 uM doxorubicin; at 10 µM; stronger effect = lower value
One number for each entry, in %.

Answered cases to consult:
COc1ccc(CN(Cc2nc3ccccc3c(=O)[nH]2)C(=O)NC2CCCCC2)cc1    89.4
CCOC(=O)Cn1nc(-c2ccc(C)cc2)ccc1=O    84.6
Cc1c(NC(=O)CSc2nnc3sc4ccccc4n23)c(=O)n(-c2ccccc2)n1C    89.6
Cc1ccc(C(C(=O)NC(C)(C)C)N(C(=O)c2csnn2)c2cccc(F)c2)o1 (stereo not drawn)    91.2
Cc1cc(C)c2nc(N)sc2c1    85.8

Quick one: give me viability for each item below, same order please.
1. CC1(C)NC(=O)N(CNc2cc(Cl)ccc2Cl)C1=O
2. N#CC1(c2ccccc2)CCC(=NO)CC1 (stereo not drawn)
3. COc1ccccc1-c1nnc(SCc2ccccn2)n1C

1: 95.5; 2: 96.8; 3: 91.4

Quick one: give me viability for each item below, same order please.
1. CN(C)S(=O)(=O)c1ccc(C(=O)N2CCC(c3nc4ccccc4o3)CC2)cc1
2. Cc1cc(C)cc(NC(=O)N2CCC(c3nc4ccccc4o3)CC2)c1
3. CCOC(=O)c1ccc(NS(=O)(=O)c2cccc3nsnc23)cc1
4. Cc1cc(NC(=O)CSc2ccc(Cl)cc2)no1
5. COc1ccc2c(CC(=O)Nc3ccc(OC)c(NS(=O)(=O)c4ccc(F)cc4)c3)coc2c1
6. COc1ccc(N2CCN(c3ccc(N)cc3C#N)CC2)cc1
7. O=C1CCn2nc(-c3ccc(Cl)cc3)cc2N1

1. 74.1
2. 93.2
3. 99.1
4. 71.7
5. 88.1
6. 92.7
7. 91.8

Quick one: give me viability for each item below, same order please.
1. CCOc1ccc(NC(=O)CSc2nnnn2CC(=O)O)cc1
2. COc1cc(NS(=O)(=O)N2CCCC2)cc(OC)c1OC

1: 99.8; 2: 83.8

* * *

# method_description: HUVEC growth inhibition – cell-based, human, primary screen (AID 575);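 further: 100% = median of untreated cell wells with 0.1% DMSO on each plate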
# conditions_used: HUVEC proliferation, CellTiter-Glo luminescence, 72 h; at 10 µM; stronger effect = lower value
Would you kindly list viability for each of these compounds?
Answers are plain numbers, in %.

Answered cases to consult:
O=C(c1ccccc1F)N1CCN(Cc2cccc(Cl)c2)CC1    107
Cn1c(=O)[nH]c(=O)c2[nH]c(CN3CCN(C(=O)c4ccco4)CC3)nc21    90.3
N#CCSc1nc(-c2ccccc2)cs1    109
COc1ccc(C(=O)Nc2ccc(C)cn2)c(OC)c1    102

Quick one: give me viability for each item below, same order please.
1. COCCN1C(=O)C(=O)/C(=C(/O)c2ccc(OC(C)C)cc2)C1c1cccnc1 (stereo not given)
2. Cc1ccc(NC(=O)C2CCCN(S(=O)(=O)c3cnc[nH]3)C2)cc1C (stereo not given)

89.7
102

Quick one: give me viability for each item below, same order please.
1. CN(C)S(=O)(=O)c1ccc(S(=O)(=O)Nc2ccc3c(c2)oc2ccccc23)cc1
2. Cn1c(SCC(=O)Nc2ccc3c(c2)oc2ccccc23)nnc1-c1ccccc1
3. COc1ccc(OC(C)C(=O)N2CC(C)OC(C)C2)cc1 (stereo not given)

[59.2, 53.1, 97.3]
